biological target: Cannabinoid receptor 2 (Homo sapiens); test: Displacement of [3H]-CP-55940 from human recombinant CB2 receptor expressed in HEK293 cells at 10 uM; format: cell-based
Sequence (P34972 whole entry): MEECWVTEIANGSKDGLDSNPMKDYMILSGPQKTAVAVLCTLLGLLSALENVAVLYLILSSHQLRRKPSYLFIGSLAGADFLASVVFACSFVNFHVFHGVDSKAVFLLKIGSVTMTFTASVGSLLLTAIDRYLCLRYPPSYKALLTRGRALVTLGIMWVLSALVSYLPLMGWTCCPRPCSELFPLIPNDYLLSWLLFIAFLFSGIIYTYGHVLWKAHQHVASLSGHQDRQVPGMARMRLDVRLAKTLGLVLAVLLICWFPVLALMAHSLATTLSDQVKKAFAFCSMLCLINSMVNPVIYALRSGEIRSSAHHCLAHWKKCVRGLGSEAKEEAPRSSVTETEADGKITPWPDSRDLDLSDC
Each entry below carries its recorded Activity.

- Substance Smiles: "O=C(/C=C/c1ccc2ccccc2c1)CCC(=O)N1CCCCC1"
  Recorded Result: "< 50%"

**Q:** I'm curious: which Activity was measured for `O=C(/C=C/c1ccc2ccccc2c1)CCC(=O)Nc1ccc(O)cc1` tested on Cannabinoid receptor 2 (Homo sapiens)?
**A:** < 50%

**Q:** I'm curious: which Activity was measured for `COc1ccc(/C=C/C(=O)CCC(=O)NCCO)cc1OC` tested on Cannabinoid receptor 2 (Homo sapiens)?
**A:** < 50%

====

target: Cannabinoid receptor 1 (Homo sapiens, UniProt P21554); assay: Displacement of [3H]-CP-55940 from human recombinant CB1 receptor expressed in HEK293 cells at 10 uM; assay type: cell-based
Sequence (P21554 whole entry): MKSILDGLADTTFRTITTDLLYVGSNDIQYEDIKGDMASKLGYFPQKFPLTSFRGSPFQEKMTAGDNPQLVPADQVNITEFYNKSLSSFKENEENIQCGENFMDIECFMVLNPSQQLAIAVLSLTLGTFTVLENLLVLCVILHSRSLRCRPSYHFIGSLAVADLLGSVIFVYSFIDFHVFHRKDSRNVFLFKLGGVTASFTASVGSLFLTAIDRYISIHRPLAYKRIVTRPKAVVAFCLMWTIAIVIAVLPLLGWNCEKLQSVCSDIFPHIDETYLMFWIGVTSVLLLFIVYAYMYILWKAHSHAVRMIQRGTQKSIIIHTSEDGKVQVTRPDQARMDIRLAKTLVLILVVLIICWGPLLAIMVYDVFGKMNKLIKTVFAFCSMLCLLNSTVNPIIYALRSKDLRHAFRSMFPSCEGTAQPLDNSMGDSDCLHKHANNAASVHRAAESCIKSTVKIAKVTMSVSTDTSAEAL
Measured Quantity: Activity

Below, each entry is followed by its recorded Activity result.
- Substance Smiles: "COc1ccc(/C=C/C(=O)CCC(=O)Nc2ccc(O)cc2)cc1"
  Recorded Result: "< 50%"
- Substance Smiles: "O=C(/C=C/c1ccc2ccccc2c1)CCC(=O)Nc1ccc(O)cc1"
  Recorded Result: "< 50%"
- Substance Smiles: "COc1ccc(/C=C/C(=O)CCC(=O)NCCO)cc1OC"
  Recorded Result: "< 50%"
- Substance Smiles: "COc1ccc(/C=C/C(=O)CCC(=O)N2CCCCC2)cc1OC"
  Recorded Result: "< 50%"
- Substance Smiles: "O=C(/C=C/c1ccc2ccccc2c1)CCC(=O)N1CCCCC1"
  Recorded Result: "< 50%"

**Q:** GET /values?readout=Activity&item= `C[C@@H](CO)NC(=O)CCCC(=O)/C=C/c1ccc2ccccc2c1`
**A:** > 10%
